Target: ADAMTS-5 (Agg-2), purified recombinant human Aggrecanase-2 (Ag2t-Phe628-Strep) (Homo sapiens)
Construct: the form used is denoted as Ag2t-Phe628-Strep (MW=41,737)
Sequence (Q9UNA0 262-628): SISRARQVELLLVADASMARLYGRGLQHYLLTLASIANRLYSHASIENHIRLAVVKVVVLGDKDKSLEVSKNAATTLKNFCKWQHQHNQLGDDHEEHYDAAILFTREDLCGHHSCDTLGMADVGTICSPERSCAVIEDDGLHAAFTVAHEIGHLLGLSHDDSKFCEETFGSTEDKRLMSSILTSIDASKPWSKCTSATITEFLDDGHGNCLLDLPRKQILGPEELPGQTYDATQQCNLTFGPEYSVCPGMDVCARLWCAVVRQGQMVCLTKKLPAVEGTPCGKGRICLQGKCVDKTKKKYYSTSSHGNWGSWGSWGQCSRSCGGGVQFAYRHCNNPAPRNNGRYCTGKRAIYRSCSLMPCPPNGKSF
Experiment: Inhibition of aggrecanase activity of ADAMTS-5 (Agg-2), continuous fluorescent quenched-peptide assay (WAKB-5 substrate)
Assay type: biochemical
Conditions: concentration that inhibits 50% of the aggrecanase activity of ADAMTS-5 (Agg-2); substrate 25 μM, pH 7.4, room temperature
Please go through the items and note down their pIC50.
On this scale, pIC50 is minus log10 of a concentration expressed in M (mol/L).

The molecule listed as "CC(C)[C@@H](NS(=O)(=O)c1ccc(-c2ccc(COc3ccc(F)cc3)cc2)cc1)C(=O)O" has a reported pIC50 of 4.95

The molecule listed as "CC(=O)c1ccc(OCc2ccc(-c3ccc(S(=O)(=O)N[C@@H](C(=O)O)C(C)C)cc3)cc2)cc1" has a reported pIC50 of 5.15

The molecule listed as "COc1cc(COc2ccc(-c3ccc(S(=O)(=O)N[C@@H](C(=O)O)C(C)C)cc3)cc2)cc(OC)c1" has a reported pIC50 of 5.49

The molecule listed as "O=C(O)CC[C@H](NC(=O)c1ccc(-c2ccccc2)cc1)C(=O)NCc1ccc(F)cc1" has a reported pIC50 of 5.55

The molecule listed as "CC(=O)c1cccc(OCc2ccc(-c3ccc(S(=O)(=O)N[C@@H](C(=O)O)C(C)C)cc3)cc2)c1" has a reported pIC50 of 4.90

The molecule listed as "Cc1cc(-c2ccc(COc3ccc4c(c3)CCCC4=O)cc2)ccc1S(=O)(=O)N[C@@H](C(=O)O)C(C)C" has a reported pIC50 of 4.95

The molecule listed as "CC(C)[C@@H](NS(=O)(=O)c1ccc(-c2ccc(COc3ccc(NC(=O)OC(C)(C)C)cc3)cc2)cc1)C(=O)O" has a reported pIC50 of 5.27

The molecule listed as "CC(C)[C@@H](NS(=O)(=O)c1ccc(-c2ccc(COc3ccc(C4CCCC4)cc3)cc2)cc1)C(=O)O" has a reported pIC50 of 6.10

The molecule listed as "CC(C)[C@@H](NS(=O)(=O)c1ccc(-c2ccc(COc3cccc(O)c3)cc2)cc1)C(=O)O" has a reported pIC50 of 4.89

The molecule listed as "CC(C)[C@@H](NS(=O)(=O)c1ccc(-c2ccc(COc3ccc(C(=O)N4CCCC4)cc3)cc2)cc1)C(=O)O" has a reported pIC50 of 4.17

The molecule listed as CC(C)[C@@H](NS(=O)(=O)c1ccc(-c2ccc(COc3ccc(C(=O)c4ccc(F)cc4)cc3)cc2)cc1)C(=O)O [drawing 172] has a reported pIC50 of 5.62

The molecule listed as "Cc1cccc(Oc2ccc(OCc3ccc(-c4ccc(S(=O)(=O)N[C@@H](C(=O)O)C(C)C)cc4)cc3)cc2)n1" has a reported pIC50 of 5.40

The molecule listed as "CC(C)[C@@H](NS(=O)(=O)c1ccc(-c2ccc(COc3cccc(O)n3)cc2)cc1)C(=O)O" has a reported pIC50 of 5.19

The molecule listed as CC(C)C(=O)c1ccc(OCc2ccc(-c3ccc(S(=O)(=O)N[C@@H](C(=O)O)C(C)C)cc3)cc2)cc1 [drawing 152] has a reported pIC50 of 5.08

The molecule listed as CC(C)C(=O)c1ccc(OCc2ccc(-c3ccc(S(=O)(=O)N[C@@H](C(=O)O)C(C)C)cc3)cc2)cc1 [drawing 151] has a reported pIC50 of 5.08

The molecule listed as "COc1ccc(OCc2ccc(-c3ccc(S(=O)(=O)N[C@@H](C(=O)O)C(C)C)cc3)cc2)cc1" has a reported pIC50 of 4.97

The molecule listed as "Cc1c(COc2ccc(-c3ccc(S(=O)(=O)N[C@@H](C(=O)O)C(C)C)cc3)cc2)oc2ccccc12" has a reported pIC50 of 5.47

The molecule listed as "Cc1cccc(Oc2ccc(OCc3ccc(-c4ccc(S(=O)(=O)N[C@@H](C(=O)O)C(C)C)c(F)c4)cc3)cc2)n1" has a reported pIC50 of 5.46

The molecule listed as "CC(C)[C@@H](NS(=O)(=O)c1ccc(-c2ccc(COc3cccc(C(=O)C4CCCCC4)c3)cc2)cc1)C(=O)O" has a reported pIC50 of 5.62

The molecule listed as "CC(C)[C@@H](NS(=O)(=O)c1ccc(-c2ccc(OCc3ccc4c(c3)OCCO4)cc2)cc1)C(=O)O" has a reported pIC50 of 5.52

The molecule listed as "CC(C)[C@@H](NS(=O)(=O)c1ccc(-c2ccc(COc3ccc(Oc4ccccn4)cc3)cc2)cc1)C(=O)O" has a reported pIC50 of 4.97

The molecule listed as "CC(C)[C@@H](NS(=O)(=O)c1ccc(-c2ccc(COc3ccc4c(c3)CCC4)cc2)cc1)C(=O)O" has a reported pIC50 of 5.62

The molecule listed as "COc1cccc(OCc2ccc(-c3ccc(S(=O)(=O)N[C@@H](C(=O)O)C(C)C)cc3)cc2)c1" has a reported pIC50 of 5.24

The molecule listed as "COc1ccc(COc2ccc(-c3ccc(S(=O)(=O)N[C@@H](C(=O)O)C(C)C)cc3)cc2)cc1" has a reported pIC50 of 5.20

The molecule listed as "CC(C)[C@@H](NS(=O)(=O)c1ccc(-c2ccc(COc3cccc4[nH]ccc34)cc2)cc1)C(=O)O" has a reported pIC50 of 4.92

The molecule listed as "CC(C)[C@@H](NS(=O)(=O)c1ccc(-c2ccc(COc3ccc(C(=O)C4CCCCC4)cc3)cc2)cc1)C(=O)O" has a reported pIC50 of 5.59

The molecule listed as "Cc1cccc(Oc2ccc(OCc3ccc(-c4ccc(S(=O)(=O)N[C@@H](C(=O)O)C(C)C)c(Cl)c4)cc3)cc2)n1" has a reported pIC50 of 5.49

The molecule listed as "CC(C)[C@@H](NS(=O)(=O)c1ccc(-c2ccc(COc3cc(C(F)(F)F)nc4c(C(F)(F)F)cccc34)cc2)cc1)C(=O)O" has a reported pIC50 of 5.74
